# Tested on: Human alphaherpesvirus 2
# test_method_notes: Compound was evaluated for antiviral activity against HSV-2(strain G)
# Format: functional
// returns Not fulfilled unless ID99 is strictly below 1 µg/mL, in which case Fulfilled

Solved entries:
O=c1[nH]c(=O)n([C@H]2C[C@H](O)[C@@H](CO)O2)cc1I : Fulfilled
C/C=C/c1cn([C@H]2C[C@H](O)[C@@H](CO)O2)c(=O)[nH]c1=O : Not fulfilled
O=c1[nH]c(=O)n([C@H]2C[C@H](O)[C@@H](CO)O2)cc1C(F)(F)F : Not fulfilled

Exercise: Input O=c1[nH]c(=O)n([C@H]2C[C@H](O)[C@@H](CO)O2)cc1/C=C/Br ; condition: ID99 strictly below 1 µg/mL. Does it hold?
Key: Not fulfilled

Exercise: Next molecule: O=c1[nH]c(=O)n([C@H]2C[C@H](O)[C@@H](CO)O2)cc1/C=C/C(F)(F)F
Key: Not fulfilled

---

# Test system: Vaccinia virus
# test_method_notes: Compound was evaluated for antiviral activity against vaccinia
# Type: functional, Orthopoxvirus vaccinia
endpoint: ID99 (µg/mL)
Give the quantity in µg/mL, number only.

O=c1[nH]c(=O)n([C@H]2C[C@H](O)[C@@H](CO)O2)cc1C(F)(F)F [TRIFLURIDINE] : 0.12

Now for the compound whose ID99 we want.
Exercise: What value of measured ID99 is listed for O=c1[nH]c(=O)n([C@H]2C[C@H](O)[C@@H](CO)O2)cc1I [IDOXURIDINE] ?
Key: 0.25

---

# System: Human alphaherpesvirus 1
# test_method_notes: Compound was evaluated for antiviral activity against HSV-1(TK-, strain B2006)
# Assay type: functional
endpoint: ID99

Exercise: Test system Human alphaherpesvirus 1; read-out ID99; what value for O=c1[nH]c(=O)n([C@H]2C[C@H](O)[C@@H](CO)O2)cc1I ?
Key: >100 µg/mL

Exercise: Next molecule: O=c1[nH]c(=O)n([C@H]2C[C@H](O)[C@@H](CO)O2)cc1C(F)(F)F
Key: 0.4 µg/mL

Exercise: Next molecule: O=c1[nH]c(=O)n([C@H]2C[C@H](O)[C@@H](CO)O2)cc1/C=C/C(F)(F)F
Key: >100 µg/mL

Exercise: Next molecule: O=c1[nH]c(=O)n([C@H]2C[C@H](O)[C@@H](CO)O2)cc1/C=C/Br
Key: >100 µg/mL

Exercise: Next molecule: C/C=C/c1cn([C@H]2C[C@H](O)[C@@H](CO)O2)c(=O)[nH]c1=O
Key: >100 µg/mL
